- SYSTEM: guinea pig liver transglutaminase (Cavia cutleri, UniProt P08587)
- Sequence (P08587 whole entry): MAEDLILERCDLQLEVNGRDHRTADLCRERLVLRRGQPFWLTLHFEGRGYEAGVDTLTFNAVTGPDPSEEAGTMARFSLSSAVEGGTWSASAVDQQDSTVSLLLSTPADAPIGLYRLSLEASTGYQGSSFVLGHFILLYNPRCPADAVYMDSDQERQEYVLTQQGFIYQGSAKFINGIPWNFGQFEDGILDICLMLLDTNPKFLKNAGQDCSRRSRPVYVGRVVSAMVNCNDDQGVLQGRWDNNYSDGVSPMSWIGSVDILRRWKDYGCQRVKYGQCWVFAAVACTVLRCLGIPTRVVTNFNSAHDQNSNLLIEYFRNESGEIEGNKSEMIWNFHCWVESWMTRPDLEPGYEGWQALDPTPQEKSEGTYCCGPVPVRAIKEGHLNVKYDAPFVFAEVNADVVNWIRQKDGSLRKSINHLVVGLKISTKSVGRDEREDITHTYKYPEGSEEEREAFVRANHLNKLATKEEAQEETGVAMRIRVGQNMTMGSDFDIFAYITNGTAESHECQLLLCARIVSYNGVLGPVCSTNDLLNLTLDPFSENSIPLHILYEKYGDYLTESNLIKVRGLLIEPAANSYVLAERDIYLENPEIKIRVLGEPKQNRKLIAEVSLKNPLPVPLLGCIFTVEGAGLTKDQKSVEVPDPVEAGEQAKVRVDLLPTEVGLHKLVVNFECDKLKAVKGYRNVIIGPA
- MEASUREMENT DESCRIPTION: Inhibition of tissue transglutaminase, hydroxamate assay (Example 29)
- Assay type: biochemical
- STUDY CONDITIONS: 0.05 mM inhibitor; 20 min preincubation at 37° C.; first block r5-r22
Where a SMILES comes first, the peptide text is derived from it. The star is where a group is joined. Cbz = O=C(OCc1ccccc1)*; ClAc = O=C(CCl)*; For = O=C*
METRIC NAME: Inhibition of tissue transglutaminase at an inhibitor concentration of 0.05 mM
// unit must come after the numeric part

Task: Inhibition of tissue transglutaminase at an inhibitor concentration of 0.05 mM lookup needed for CCOC(=O)CNC(=O)[C@H](COC(=O)CCl)NC(=O)OCc1ccccc1 (Cbz-Ser(ClAc)-Gly-OEt) , thanks.
Output: 2%

Task: Try CCOC(=O)CNC(=O)[C@H](COC=O)NC(=O)OCc1ccccc1 (Cbz-Ser(For)-Gly-OEt) next.
Output: 0%

Task: Try O=C(O)CNC(=O)[C@H](COC(=O)CCl)NC(=O)OCc1ccccc1 (Cbz-Ser(ClAc)-Gly-OH) next.
Output: 1%

Task: Try CCOC(=O)CNC(=O)[C@H](COC(C)=O)NC(=O)OCc1ccccc1 (Cbz-Ser(Ac)-Gly-OEt) next.
Output: 0%

Task: Try CC(C)(C)OC(=O)CNC(=O)[C@H](CNC(N)=O)NC(=O)OCc1ccccc1 next.
Output: 0%

Task: Try CC(=O)OC[C@H](NC(=O)OCc1ccccc1)C(=O)NCC(=O)O [Carbobenzoxy-L-serylglycine β-acetate, Carbobenzoxy-L-serylqlycine β-acetate] (Cbz-Ser(Ac)-Gly-OH) next.
Output: 0%

Task: Try O=COC[C@H](NC(=O)OCc1ccccc1)C(=O)NCC(=O)O [Carbobenzoxy-L-serylglycine β-formate, Carbobenzoxy-L-serylglycine β-Formate] (Cbz-Ser(For)-Gly-OH) next.
Output: 0%
